pIC50: −log10 of the molar value.
What follows is a record of pIC50 for Acetylcholinesterase (Homo sapiens).

Molecule | Target Desc | pIC50
CCOC(=O)C1=C(C)Nc2nc3c(c(N)c2C1c1ccc(-c2ccccc2)cc1)CCCC3 (centres undefined) | Acetylcholinesterase (Homo sapiens) | 7.15
CCOC(=O)C1=C(C)Nc2nc3c(c(N)c2C1c1ccc(OC)c(OC)c1)CCCC3 (centres undefined) | Acetylcholinesterase (Homo sapiens) | 7.35
CCOC(=O)C1=C(C)Nc2nc3c(c(N)c2C1c1cccnc1)CCCC3 (centres undefined) | Acetylcholinesterase (Homo sapiens) | 6.80
CCOC(=O)C1=C(C)Nc2nc3c(c(N)c2C1c1ccncc1)CCCC3 (centres undefined) | Acetylcholinesterase (Homo sapiens) | 6.65

----------
- Target Desc: Acetylcholinesterase (Electrophorus electricus)
- Sequence (O42275 whole entry): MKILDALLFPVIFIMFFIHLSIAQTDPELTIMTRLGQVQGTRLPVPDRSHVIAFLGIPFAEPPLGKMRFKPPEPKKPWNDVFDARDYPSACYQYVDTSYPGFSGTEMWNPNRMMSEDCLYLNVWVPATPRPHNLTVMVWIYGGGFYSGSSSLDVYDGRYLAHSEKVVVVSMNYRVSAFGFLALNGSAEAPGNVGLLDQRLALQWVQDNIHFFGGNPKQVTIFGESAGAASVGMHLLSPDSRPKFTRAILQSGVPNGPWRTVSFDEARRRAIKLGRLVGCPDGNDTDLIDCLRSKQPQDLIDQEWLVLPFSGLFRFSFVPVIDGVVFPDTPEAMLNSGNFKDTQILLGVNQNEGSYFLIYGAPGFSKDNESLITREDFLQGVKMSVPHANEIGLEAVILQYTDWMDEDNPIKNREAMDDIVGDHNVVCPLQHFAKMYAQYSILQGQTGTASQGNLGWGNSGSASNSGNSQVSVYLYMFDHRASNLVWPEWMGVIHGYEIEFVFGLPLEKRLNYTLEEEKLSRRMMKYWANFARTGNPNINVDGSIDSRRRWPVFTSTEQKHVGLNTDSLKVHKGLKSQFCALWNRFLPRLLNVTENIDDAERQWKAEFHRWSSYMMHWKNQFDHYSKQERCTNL
pIC50: −log10 of the molar value.
Reported values of pIC50 for individual entries

Compound | pIC50
CCOC(=O)C1=C(C)Nc2nc3c(c(N)c2C1c1ccncc1)CCCC3 (centres undefined) | 6.66
CCOC(=O)C1=C(C)Nc2nc3c(c(N)c2C1c1ccc(OC)c(OC)c1)CCCC3 (centres undefined) | 6.99
CCOC(=O)C1=C(C)Nc2nc3c(c(N)c2C1c1cccnc1)CCCC3 (centres undefined) | 7.33
CCOC(=O)C1=C(C)Nc2nc3c(c(N)c2C1c1ccc(-c2ccccc2)cc1)CCCC3 (centres undefined) | 7.05

----------
- Measurement Notes: in vitro
- Run Conditions: pig, PAMPA
- Description: Permeability across porcine brain lipid coated polyvinylidene fluoride membrane by PAMPA
Returns satisfied if the recorded Papp is greater than or equal to 0.6 ×10⁻⁶ cm/s, and not satisfied otherwise.

Molecule | Discrete Label
CCn1cc(C(=O)O)c(=O)c2cc(F)c(N3CCNC(C)C3)c(F)c21 (configuration not stated) | not satisfied
COc1ccc(CCN2CCC(Nc3nc4ccccc4n3Cc3ccc(F)cc3)CC2)cc1 | satisfied
CN(C)CCCN1c2ccccc2Sc2ccccc21 | satisfied
CN1C(C(=O)Nc2ccccn2)=C(O)c2ccccc2S1(=O)=O | not satisfied
CC(=O)[C@H]1CC[C@H]2[C@@H]3CCC4=CC(=O)CC[C@]4(C)[C@H]3CC[C@]12C | satisfied
